STUDY_SYSTEM: HA of low pathogenic H7N1 (A/Ch/Italy/1067/1999), on infected MDCK cells or on virus (Influenza A virus H7N1 A/Ch/Italy/1067/1999 (host Chicken))
PROCEDURE_DETAILS: cell-based or functional assay
MEASUREMENT_TYPE: IC50, in vitro virus neutralization on MDCK cells (µg/mL)
# output: bare number, implied unit µg/mL

What IC50, in vitro virus neutralization on MDCK cells value was documented for this binder, AT10-002 (antibody, V domains shown) VH: QLQLQESGPRLVKPSETLSLTCSVSGVSISSSNYYWGWIRQPPGKGLEWIGTIYHSGSTYYNPSLKSRLIISVDTSKNQFYLQLTSLTAADSAVYYCATGGGFGWSQTYFGYWGQGTLVTASS VL: QSALTQPASVSGSPGQSITISCTGTSSDVGAYNYVSWYQHHPGKAPKLMIYDVTYRPSGVSTRFSGSKSGNTASLTISGLQAEDEADYYCSSQSRSSTLVIFGGGTKLTVLG ?
3.6

Input AT10-004 (antibody, V domains shown) VH: QVQLVQSGAEVRKPGASVKVSCKASGYTFTRHGISWVRQAPGQGLEWMGWISAYTGDTDYAQKFQGRVTMTTDTSTNTAYMELRSLRSDDAAVYYCARLRLQGEVVVPPSQSNWFDPWGQGTLVTVSS VL: EIVLTQSPATLSLYPGERATLSCRASQSVSRYLAWYQQKPGQAPRLLIYDASNRATGIPARFSGSGSGTDFTLTISSLEPEDFAVYYCQQRSNWLKITFGQGTRLEIKG
0.6
